Ref: ChEMBL document CHEMBL4257451

Attribute: fractional inhibitory concentration index (FICI)
Test system: Klebsiella pneumoniae
Experiment notes: Synergistic antibacterial activity against Klebsiella pneumoniae SIPI-KPN-1712 assessed as fractional Inhibitory concentration index in presence of polymixin B at 2 ug/ml by broth microdilution method
Assay type: functional
Experimental readout: fractional inhibitory concentration index (FICI)

{"Compound": "COC1CCCc2nc(Nc3c(F)cccc3F)sc21 (configuration not stated)", "Reported": 1.03}
{"Compound": "Clc1ccc(Nc2nc3ccc(Cl)cc3s2)cc1", "Reported": 1.03}
{"Compound": "OC1CCCc2nc(Nc3ccc(F)cc3)sc21 (configuration not stated)", "Reported": 1.03}
{"Compound": "COC1CCCc2nc(Nc3cccnc3)sc21 (configuration not stated)", "Reported": 0.53}
{"Compound": "COC1CCCc2nc(Nc3cccc(Br)c3)sc21 (configuration not stated)", "Reported": 0.53}
{"Compound": "COC1CCCc2nc(Nc3ccc(C#N)cc3)sc21 (configuration not stated)", "Reported": 0.53}
{"Compound": "COC1CCCc2nc(Nc3ccccc3Cl)sc21 (configuration not stated)", "Reported": 1.03}
